- assayed_system: Avi-KRAS WT (1-169) GppNHp/RAF1 RBD-3xFLAG (52-151) (Homo sapiens, UniProt P01116)
- Construct: Avi-KRAS WT (1-169)
- Sequence (P01116 1-169 isoform P01116-2): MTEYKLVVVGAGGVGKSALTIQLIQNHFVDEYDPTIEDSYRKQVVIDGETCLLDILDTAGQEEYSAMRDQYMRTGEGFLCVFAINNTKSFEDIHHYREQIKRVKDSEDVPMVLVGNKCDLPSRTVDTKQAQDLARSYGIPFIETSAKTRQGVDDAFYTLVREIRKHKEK
- experiment_description: Raf1-KRAS WT-GppNHP disruption HTRF assay (Biological Example 1)
- Format: binding
- assay_context: KRAS WT, GppNHp-loaded; class symbols
Below, each entry is listed alongside its reported IC50.

These recorded examples may help you get a feel for the data.
molecule: CCN(c1nc(OC[C@@]23CCCN2C[C@H](F)C3)nc2c(F)c(-c3ccc(F)c4sc(N)c(C#N)c34)c(C(F)(F)F)cc12)[C@H]1C[C@H](COC)N(C(=O)C2CC2)C1 (atropisomer, axis not shown)
IC50: < 100 nM
--
molecule: CCN(c1nc(OC[C@@]23CCCN2C[C@H](F)C3)nc2c(F)c(-c3ccc(F)c4sc(N)c(C#N)c34)c(C(F)(F)F)cc12)[C@H]1CCN(C(=O)OCC2COC2)C1 (atropisomer, axis not shown)
IC50: < 100 nM
--
molecule: CN(C)C(=O)c1nn2c(c1C1CC1)CN(c1nc(OCC34CCCN3CC(F)C4)nc3c(F)c(-c4ccc(F)c5sc(N)c(C#N)c45)c(C(F)(F)F)cc13)CC2 (stereo not drawn)
IC50: 100 to 1000 nM
--
molecule: N#Cc1c(N)sc2c(F)ccc(-c3c(C(F)(F)F)cc4c(N(C5CC5)[C@H]5CCN(C(=O)[C@H]6CCO6)C5)nc(OC[C@@]56CCCN5C[C@H](F)C6)nc4c3F)c12 (atropisomer, axis not shown)
IC50: 100 to 1000 nM
--
molecule: CCN(c1nc(OC[C@@]23CCCN2C[C@H](F)C3)nc2c(F)c(-c3ccc(F)c4sc(N)c(C#N)c34)c(C(F)(F)F)cc12)[C@H]1C[C@H](C)N(C(=O)[C@@H]2CC2(F)F)C1 (atropisomer, axis not shown)
IC50: 100 to 1000 nM

Entry CCN(c1nc(OC[C@@]23CCCN2C[C@H](F)C3)nc2c(F)c(-c3ccc(F)c4sc(N)c(C#N)c34)c(C(F)(F)F)cc12)[C@H]1CCN(C(=O)[C@H]2CCCCO2)C1 (atropisomer, axis not shown) : IC50 on Avi-KRAS WT (1-169) GppNHp/RAF1 RBD-3xFLAG (52-151) (Homo sapiens, UniProt P01116) = < 100 nM

Value (IC50, Avi-KRAS WT (1-169) GppNHp/RAF1 RBD-3xFLAG (52-151) (Homo sapiens, UniProt P01116)) for record CCN(c1nc(OC[C@@]23CCCN2C[C@H](F)C3)nc2c(F)c(-c3ccc(F)c4sc(N)c(C#N)c34)c(C(F)(F)F)cc12)[C@H]1CCN(C(=O)C2CCOCC2)C1 (atropisomer, axis not shown) = < 100 nM

---

- assayed_system: Avi-KRAS G12R (1-169) GppNHp/RAF1 RBD-3xFLAG (52-151) (Homo sapiens, UniProt P01116, G12R)
- Construct: Avi-KRAS G12R (1-169)
- Sequence (P01116 1-169 isoform P01116-2 G12R): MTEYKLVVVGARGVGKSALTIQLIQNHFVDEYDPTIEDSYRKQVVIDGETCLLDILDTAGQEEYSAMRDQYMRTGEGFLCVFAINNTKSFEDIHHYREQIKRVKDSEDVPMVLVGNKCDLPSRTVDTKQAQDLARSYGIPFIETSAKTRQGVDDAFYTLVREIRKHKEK
- experiment_description: Raf1-KRAS G12R-GppNHP disruption HTRF assay (Biological Example 1)
- Format: binding
- assay_context: KRAS G12R, GppNHp-loaded; class symbols
- Experimental: A protein:protein interaction (PPI) Homogeneous Time Resolved Fluorescence (HTRF) assay was used to determine the effectiveness of compounds of the present disclosure in disrupting KRAS protein and effector RAF1 binding. The assay buffer included: 50 mM Tris pH 7.5, 100 mM NaCl, 5 mM MgCl2, 0.1% BSA, 0.01% Tween, and 10% DMSO. The bead buffer included: 50 mM Tris pH 7.5, and 0.01% Tween 20. […] Data was reported as percentage of activity, with DMSO as 100%. Data was plotted and analyzed using Prism 8.
measured_endpoint: IC50

Some solved entries appear below for comparison.
compound: CCN(c1nc(OC[C@@]23CCCN2C[C@H](F)C3)nc2c(F)c(-c3ccc(F)c4sc(N)c(C#N)c34)c(C(F)(F)F)cc12)[C@H]1CCN(C(=O)C2CCN(C(C)=O)CC2)C1 (atropisomer, axis not shown)
measured: < 100 nM
//
compound: CCN(c1nc(OC[C@@]23CCCN2C[C@H](F)C3)nc2c(F)c(-c3ccc(F)c4sc(N)c(C#N)c34)c(C(F)(F)F)cc12)[C@H]1CCN(C(=O)OCC2CN(C(C)=O)C2)C1 (atropisomer, axis not shown)
measured: < 100 nM
//
compound: C/C=C\C(=O)N1CC[C@@H](N(C)c2nc(OC[C@@]34CCCN3C[C@H](F)C4)nc3c(F)c(-c4ccc(F)c5sc(N)c(C#N)c45)c(C(F)(F)F)cc23)[C@H]1C
measured: 100 to 1000 nM

Recorded result, CCN(c1nc(OC[C@@]23CCCN2C[C@H](F)C3)nc2c(F)c(-c3ccc(F)c4sc(N)c(C#N)c34)c(C(F)(F)F)cc12)[C@H]1CCN(C(=O)C2COC2)C1 (atropisomer, axis not shown) , IC50: < 100 nM
